Recorded values, source patent US20240150440A1.

biological target: T1, SARS-CoV-2 Beta Variant RBD (SARS-CoV-2 Beta variant); experiment: ELISA, RBD coated
T1 construct: domain: RBD; coated on ELISA plates
pEC50: −log10 of the molar value.
Measured pEC50 of individual entries
measurement_name: pEC50

1. PP933 MBP-5HVZ-R5e-C1-H6 (VHH, Form: Dimer) VHH: QVQLVESGGGLVQPGGSLRLSCAASGSIPYVQAMSWFRQAPGKGREGVASIGWGGGTYYADSVKGRFTISRDNAKNTVYLQMNSLKPEDTAVYYCAAKFRENFSFYDYWGQGTQVTVSS :: 7.99
2. PP908 MBP-5HVZ-S2a-C4-H6 (VHH, Form: Dimer) VHH: QVQLVESGGGLVQPGGSLRLSCAASGFSESINATAWFRQAPGKQREGVAGLDGGGSDYYSDSVKGRFTISRDNAKNTVYLQMNSLKPEDTAVYYCAAQLTSSFRGYDFTPSNYDYWGQGTQVTVSS :: 8.13
3. PP906 MBP-5HVZ-S1b-E7-H6 (VHH, Form: Dimer) VHH: QVQLVESGGGLVQPGGSLRLSCAASGGEFSDNGLHWFRQAPGKQREFVATASSDGSTQYRDSVKGRFTISRDNAKNTVYLQMNSLKPEDTAVYYCTALLMSSAGEYDVWGQGTQVTVSS :: 6.01
4. PP935 MBP-5HVZ-S3b-E11-H6 (VHH, Form: Dimer) VHH: QVQLVESGGGLVQPGGSLRLSCAASGDIYSQSAMAWYRQAPGKEREFVAAITTTGSRSYKDSVKGRFTISRDNAKNTVYLQMNSLKPEDTAVYYCAAFAVRSSSVSDAYDYWGQGTQVTVSS :: 6.46
